- Tested on: SR leukemia
- Assay: NCI tumour cell line growth inhibition, 48 h; in the data active = GI50 below about 0.43 µM; inactive = the rest
// classify into active, inactive

O=C(/C=C/c1cccs1)c1ccc(Cl)cc1Cl; inactive
CCN(CC)c1ccc(/C=N/NC(=O)c2ccc(S(C)(=O)=O)cc2)c(O)c1; active
C/C(=C1\SC(=NCc2cccs2)NC1=O)c1ccc2ncccc2c1; inactive
CCC(=O)c1c(C(F)(F)F)n([O-])c2cc(N3CCNCC3)c(F)cc2[n+]1=O; inactive
CC(=O)OCc1cnc2c3c(nc4ccccc4c13)C(=O)c1cccnc1-2; active

Ask | Hi, do you know how `CCn1c(-c2nonc2N)nc2c(C#CC(C)(C)O)nc(CN3CCCC3)cc21` came out in this test?
Reply | inactive

Ask | Hi, do you know how `CS(=O)(=O)CCN(CC#N)Cc1ccc(-c2ccc3ncnc(Nc4ccc(OCc5cccc(F)c5)c(Cl)c4)c3c2)o1` came out in this test?
Reply | inactive

Ask | Hi, do you know how `O=C(NCCCN1CCC(N2CCCCC2)CC1)C1=Cc2cc(Br)ccc2OC1` came out in this test?
Reply | inactive

Ask | Hi, do you know how `Clc1ccc(CNc2ccc3nc(CCC4CCCCC4)[nH]c3c2)cc1` came out in this test?
Reply | inactive

Ask | Hi, do you know how `O=C1/C(=C\c2ccc(Cl)cc2)CCOc2c1ccc1ccccc21` came out in this test?
Reply | inactive

---

- Test system: UO-31 renal
- Assay: NCI tumour cell line growth inhibition, 48 h
Measured TGI, listed per entry for reference.

Clc1ccc2c(NCCNC3CCCCC3)ccnc2c1; 11.2 µM

Now look at this entry.
Summary for this molecule, C=CCCCCCCCC(O)C1C[C@H](O)C(CCCCC)O1 (stereo not given in full) : TGI is 31.9 µM

---

Measured TGI, listed per entry for reference.
- System: NCI-H226 lung
- Assay: NCI tumour cell line growth inhibition, 48 h

Consider the reported TGI for these compounds:
COC(=O)C1(C(=O)OC)CC(=O)c2c(OC(=O)c3cccc(OC)c3C#N)ccc(OC(=O)c3cccc(OC)c3C#N)c2C1; > 100 µM
Cc1ccc(S(=O)(=O)Nn2c(S)c(C#N)c(-c3ccc(N(C)C)cc3)c(C#N)c2=O)cc1; 34.6 µM
O=C1OC(c2ccccc2)=N/C1=C\c1ccc(Cl)cc1; > 100 µM
CCOCc1cc(=O)c2cc3c(cc2o1)OC(C)(C)CC3; > 100 µM

So the reported TGI for `O=C1C=C(c2[nH]c3ccccc3c2C2=CC(=O)c3ccccc3C2=O)C(=O)c2ccccc21` , on NCI-H226 lung, turned out to be > 100 µM

---

- Tested on: OVCAR-4 ovarian
- Assay: NCI tumour cell line growth inhibition, 48 h; in the data active = GI50 below about 0.43 µM; inactive = the rest
// classify into y (active), n (inactive)

Please review the following examples before continuing.
NC1CCCCC1N.O=C([O-])c1cc(S(=O)(=O)Nc2cc(S(=O)(=O)[O-])cc3cc(S(=O)(=O)[O-])cc(O)c23)ccc1[O-].[Pt+4]; n
COc1cccc2c1C(=O)c1c(O)c3c(c(O)c1C2=O)C[C@@](O)(C(C)=O)C[C@@H]3O[C@H]1C[C@H](N)[C@H](O)[C@H](C)O1; y
O=c1[nH]cnc2c1ccn2C1OC(CO)C(O)C1O (configuration not stated); n
CS(=O)(=O)CCN(CC#N)Cc1ccc(-c2ccc3ncnc(Nc4ccc(OCc5cccc(F)c5)c(Cl)c4)c3c2)o1; n
COc1cc(-c2cc(/C=C3\C(=O)Nc4cc(Cl)ccc43)[nH]n2)cc(OC)c1OC; n

Ask | Hi, do you know how `CCN1C(C)(C)CC(Oc2ccc(C(=O)Nc3ccc(NC(=O)Nc4cc(C(C)(C)C)on4)cc3)nc2)CC1(C)C` came out in this test?
Reply | n

Ask | Hi, do you know how COc1cc(C2CC(c3cccc(Nc4ccnc5cc(Cl)ccc45)c3)=NN2C=O)cc(OC)c1OC (configuration not stated) came out in this test?
Reply | n
